Collected TGI values appear next to each entry.
test system: NCI/ADR-RES ovarian; assay: NCI tumour cell line growth inhibition, 48 h

# MOLECULE, TGI
records = [
    ("O=S(=O)(O)c1ccc(N=Nc2ccc(N=Nc3c(O)ccc4ccccc34)cc2)cc1", "> 100 µM"),
    ("Cc1ccc(Cl)cc1Nc1nc(C(F)(F)F)ccc1C(=O)N1CCN(c2cccc(Cl)c2)CC1", "> 100 µM"),
    ("Cn1c(N)c2c3c(sc2nc1=O)CCCC3", "> 75 µM"),
    ("COC12C=C/C(=C(/C(=O)OCc3ccncc3)C(=O)CCCCCCCCC3(OC)C=C/C(=C(/C(=O)OCc4ccncc4)C(=O)CCCCCCCC1)O3)O2", "3.93 µM"),
    ("Cc1cn2c(/C=C3\\C(=O)Nc4ccc(O)cc43)c(-c3ccc(Cl)cc3)nc2s1", "> 100 µM"),
    ("NC12Oc3cc(O)cc(O)c3C1(c1ccc(Cl)cc1)c1c(O)cc(O)cc1O2 (stereo unspecified)", "> 100 µM"),
    ("O=C(CCc1cc(O)cc(O)c1)NCCc1cc(O)cc(O)c1", "> 100 µM"),
    ("CCOP(=O)(O)C(C)(C)NC", "> 100 µM"),
    ("Cn1c(=O)c2c(no[n+]2[O-])c2ccccc21", "47.3 µM"),
    ("CCO/C=N/NC(=O)CSc1nc2ccc(I)cc2c(=O)n1Cc1ccccc1", "> 100 µM"),
    ("CCOC(=O)C(=Cc1cccc(Cl)c1)C(=O)OCC", "16.9 µM"),
]
